- Assay Target: human glucagon receptor (human, UniProt P47871 26-477)
- Run Description: cell-based or functional assay
Starred links: 1 amine or outer side, 2 acyl side, 3 side chain; linkers in the order of their positions; H or OH if unused. Non-standard residues stand in square brackets, D forms with d. No end group written: not given here. ACPP = 2-amino-5-(3-chlorophenyl)pentanoic acid, O=C([C@H](CCCc1cccc(Cl)c1)N[*:1])[*:2]; 2Cl,4OMe‑APPA = 2-amino-5-(2-chloro-4-methoxyphenyl)pentanoic acid; Bip(2'-Et-4'-OMe) = CCc1cc(OC)ccc1-c1ccc(C[C@H](N)C(=O)O)cc1; Leu(5,5,5,5',5',5'-F6) = N[C@@H](CC(C(F)(F)F)C(F)(F)F)C(=O)O; 2F‑APPA = 2-amino-5-(2-fluorophenyl)pentanoic acid; αMePhe(2-F) = C[C@](N)(Cc1ccccc1F)C(=O)O; CNB = not defined here; Aib = CC(C)(N)C(=O)O
Measured Property: inhibition of cAMP production, 100 nM (pmol/ml/µg prt)

P = H[Aib][CNB]GTFTSD[Bip(2'-Et-4'-OMe)][2Cl,4OMe‑APPA] (reading uncertain) [Seq. ID. No. 84: H-Aib-(CNB)-GTFTSD-Bip(OMe)-(2Cl,4OMe-APPA)]
Q = H[Aib][CNB]GTFTSD[Bip(2'-Et-4'-OMe)][ACPP] (reading uncertain) [Seq. ID. No. 31: H-Aib-(CNB)-GTFTSD-Bip(OMe)-(ACPP)]
R = Ac-H[Aib][Leu(5,5,5,5',5',5'-F6)]GT[αMePhe(2-F)]TSD[Bip(2'-Et-4'-OMe)][2F‑APPA] [Seq. ID. No. 212: CH3CO-H-Aib-(Hfl)-GT-(α-Me-2F-Phe)-TSD-Bip(OMe)-(2F-APPA)]
Problem: Task for the reader: rank each entry by its inhibition of cAMP production, 100 nM, from the minimum upward. Use the labels to give the ranking in the order requested.
Solution: P, Q, R
(P: 0 pmol/ml/µg prt, Q: 2 pmol/ml/µg prt, R: 6 pmol/ml/µg prt)
